Here the recorded CTG-3D luminescence at 96 h is given for each entry.
# System: HCI-023 (organoid from a triple-negative breast cancer xenograft)
# MEASUREMENT_NOTES: CTG-3D luminescence at 96 h relative to day-0 seeding control (ratio to day 0); higher = more growth / less cytotoxicity; PDxO 3D drug screen (set 2), 96 h, CTG-3D normalised to day-0 seeding control.
# CONDITION_PARAMETERS: 0.1 µM; days in culture: 223

[
  {
    "COMPOUND": "COc1cccc2c1C(=O)c1c(O)c3c(c(O)c1C2=O)C[C@@](O)(C(=O)CO)C[C@@H]3O[C@H]1C[C@H](N)[C@@H](O)[C@H](C)O1 [epirubicin]",
    "CTG-3D luminescence at 96 h": 1.3
  },
  {
    "COMPOUND": "C[C@@H](Nc1cc(F)cc(F)c1)c1cc(C(=O)N(C)C)cc2c(=O)cc(N3CCOCC3)oc12",
    "CTG-3D luminescence at 96 h": 1.98
  },
  {
    "COMPOUND": "CC(=O)O[C@@]12CO[C@@H]1C[C@H](O)[C@@]1(C)C(=O)[C@H](O)C3=C(C)[C@@H](OC(=O)[C@H](O)[C@@H](NC(=O)OC(C)(C)C)c4ccccc4)C[C@@](O)([C@@H](OC(=O)c4ccccc4)[C@H]21)C3(C)C",
    "CTG-3D luminescence at 96 h": 0.597
  },
  {
    "COMPOUND": "Cc1c(CN2CCN(C(=O)[C@H](C)O)CC2)sc2c(N3CCOCC3)nc(-c3cnc(N)nc3)nc12",
    "CTG-3D luminescence at 96 h": 1.85
  }
]

###

Here the recorded CTG-3D luminescence at 96 h is given for each entry.
# System: HCI-003.E2 (organoid from an ER-positive breast cancer xenograft)
# MEASUREMENT_NOTES: CTG-3D luminescence at 96 h relative to day-0 seeding control (ratio to day 0); higher = more growth / less cytotoxicity; PDxO 3D drug screen (set 2), 96 h, CTG-3D normalised to day-0 seeding control.
# CONDITION_PARAMETERS: 0.00025 µM
READOUT_KIND: CTG-3D luminescence at 96 h

[
  {
    "MOLECULE": "Nc1cc(C(F)(F)F)c(-c2cc(N3CCOCC3)nc(N3CCOCC3)n2)cn1 [buparlisib]",
    "REPORTED_MEASUREMENT": 2.29
  },
  {
    "MOLECULE": "C[C@@H](Nc1cc(F)cc(F)c1)c1cc(C(=O)N(C)C)cc2c(=O)cc(N3CCOCC3)oc12 [AZD-8186]",
    "REPORTED_MEASUREMENT": 2.56
  },
  {
    "MOLECULE": "O=C(c1cc(Cc2n[nH]c(=O)c3ccccc23)ccc1F)N1CCN(C(=O)C2CC2)CC1 [olaparib]",
    "REPORTED_MEASUREMENT": 2.74
  },
  {
    "MOLECULE": "CS(=O)(=O)CCNCc1ccc(-c2ccc3ncnc(Nc4ccc(OCc5cccc(F)c5)c(Cl)c4)c3c2)o1 [lapatinib]",
    "REPORTED_MEASUREMENT": 2.41
  },
  {
    "MOLECULE": "CCOc1ccn(-c2ccc(F)cc2)c(=O)c1C(=O)Nc1ccc(Oc2ccnc(N)c2Cl)c(F)c1 [ASLAN002]",
    "REPORTED_MEASUREMENT": 2.58
  }
]
